Listed next: entries and their corresponding TRF signal.
target-of-assay: trypsin
assay-info: Fab TRF, 10 ug/mL Fab
experimental-endpoint: TRF signal

{"binder": "KB_A10 (scFv, V domains shown) VH: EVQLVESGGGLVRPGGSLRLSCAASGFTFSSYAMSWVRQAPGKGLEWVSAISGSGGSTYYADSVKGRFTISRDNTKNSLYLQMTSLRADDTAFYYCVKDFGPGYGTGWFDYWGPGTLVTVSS VL: AVNWYQQLPGKAPKLLIYAAGGCPRILMRCKQDSDCLAGCVCGPNGFCGSNSGVPDRFSGSKSGNTASLTISGLQSEDEADYYCAAWDDSLSGVVFGGGTQLTVLG", "experimental-endpoint": "TRF signal", "reported-measurement": 68700}
{"binder": "KB_C10 (scFv, V domains shown) VH: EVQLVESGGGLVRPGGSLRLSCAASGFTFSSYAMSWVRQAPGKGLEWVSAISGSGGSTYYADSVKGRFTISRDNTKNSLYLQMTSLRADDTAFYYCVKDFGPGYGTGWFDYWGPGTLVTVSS VL: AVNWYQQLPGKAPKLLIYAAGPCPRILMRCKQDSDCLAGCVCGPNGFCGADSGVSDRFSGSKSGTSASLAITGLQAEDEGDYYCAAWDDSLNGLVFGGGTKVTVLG", "experimental-endpoint": "TRF signal", "reported-measurement": 238000}
{"binder": "KB_C07 (scFv, V domains shown) VH: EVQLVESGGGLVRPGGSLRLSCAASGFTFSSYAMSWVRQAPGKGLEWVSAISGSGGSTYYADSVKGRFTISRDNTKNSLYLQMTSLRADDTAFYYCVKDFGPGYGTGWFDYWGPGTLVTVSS VL: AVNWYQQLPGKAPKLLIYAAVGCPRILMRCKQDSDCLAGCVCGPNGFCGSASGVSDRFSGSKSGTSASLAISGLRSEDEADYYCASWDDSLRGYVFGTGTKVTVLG", "experimental-endpoint": "TRF signal", "reported-measurement": 276000}
{"binder": "KB_C08 (scFv, V domains shown) VH: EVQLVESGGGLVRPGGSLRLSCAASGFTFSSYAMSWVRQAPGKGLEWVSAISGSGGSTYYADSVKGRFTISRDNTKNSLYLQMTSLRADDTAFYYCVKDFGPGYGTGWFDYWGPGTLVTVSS VL: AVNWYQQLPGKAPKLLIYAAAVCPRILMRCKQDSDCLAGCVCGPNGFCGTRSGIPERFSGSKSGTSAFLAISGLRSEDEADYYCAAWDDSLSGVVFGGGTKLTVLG", "experimental-endpoint": "TRF signal", "reported-measurement": 183000}
{"binder": "KB_B01 (scFv, V domains shown) VH: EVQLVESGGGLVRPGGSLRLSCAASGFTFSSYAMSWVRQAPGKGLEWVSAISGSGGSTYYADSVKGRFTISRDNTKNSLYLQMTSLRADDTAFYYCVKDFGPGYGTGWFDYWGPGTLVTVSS VL: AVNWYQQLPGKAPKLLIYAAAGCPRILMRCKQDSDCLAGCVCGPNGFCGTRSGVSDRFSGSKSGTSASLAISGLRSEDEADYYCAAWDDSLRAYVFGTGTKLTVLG", "experimental-endpoint": "TRF signal", "reported-measurement": 257000}
